# reported GI50; entries follow
tested on: KM12; assay: NCI tumour cell line growth inhibition, 48 h
Active and inactive are the calls of the source. Cut-off read from the data, not from the text of the source: active = GI50 up to about 1.1 µM and inactive = higher.

Sample answers from the record:
[
  {
    "COMPOUND": "COC(=O)c1ccc(NCc2cc(O)c3ccccc3c2O)cc1",
    "GI50": "14.8 µM (inactive)"
  },
  {
    "COMPOUND": "CC(C)(C)C(O)CC(O)(C(F)(F)F)C(F)(F)F (stereo unspecified)",
    "GI50": "> 100 µM (inactive)"
  },
  {
    "COMPOUND": "Nc1c(-c2cn(Cc3ccccc3)c3ccccc23)[n+]([O-])c2ccccc2[n+]1[O-]",
    "GI50": "28.8 µM (inactive)"
  },
  {
    "COMPOUND": "Oc1ccc2c(c1)OCC1c3ccccc3OC21 (stereo unspecified)",
    "GI50": "45.4 µM (inactive)"
  },
  {
    "COMPOUND": "Cc1cc(Cl)ccc1C1OC(=O)c2c1ccc1ccccc21 (stereo unspecified)",
    "GI50": "> 100 µM (inactive)"
  }
]

Give the measured GI50 of O=C(O)CC1CC=C[C@H]2c3cc4c(cc3C(=O)NC12)OCO4 (stereo partly specified) .
> 75 µM (inactive)

Give the measured GI50 of CC(=O)OCC1OC(SC2=NC(=O)/C(=C/c3ccccc3)S2)C(OC(C)=O)C(OC(C)=O)C1OC(C)=O (stereo unspecified) .
36.9 µM (inactive)

Give the measured GI50 of Cn1c(=O)c2c(ncn2CCCCOc2ccc3c(c2)[n+]([O-])nc(N)[n+]3[O-])n(C)c1=O .
32.6 µM (inactive)

Give the measured GI50 of O=S(=O)(c1cc(Cl)ccc1Cl)N1CCN(c2ccc(Cl)c(Cl)c2)CC1 .
28.2 µM (inactive)

Give the measured GI50 of CC(NC(=O)OC(C)(C)C)C(=O)NC(Cc1ccccc1)C(=O)NCC(=O)Oc1c(Cl)c(Cl)c(Cl)c(Cl)c1Cl (stereo unspecified) .
25 µM (inactive)
